Target: Mas-related G-protein coupled receptor member X1 (Homo sapiens)
Assay: agonists of human MrgX1 receptor, primary screen, HEK293 cells, Fluo-4 calcium flux (AID 588627);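 as to B-score: B-score of the peak-minus-trough calcium fluorescence change over baseline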
Settings: Fluo-4 calcium fluorescence, agonist mode, at 10 µM; active compounds read high
In all, about 310,000 compounds went through this assay and about 1,400 (0.45%) were called active. This excerpt belongs to a sample that is enriched for actives.
READOUT LABEL: B-score

Guide cases for B-score, answers given:
Q: B-score lookup needed for Cc1cc(/C=C2/C(=O)NC(=O)N(Cc3ccco3)C2=O)c(C)n1-c1ccc(C(=O)O)cc1 , thanks.
Ans: inactive

Q: I'd like to know its B-score. The compound in question is CCCCC(=O)N/N=C/c1c(O)n(CCC2=CCCCC2)c(=O)[nH]c1=O
Ans: inactive

Q: Quick one: B-score for O=C1NC(=O)N(Cc2ccco2)C(=O)/C1=C\c1ccc(-c2ccc(F)cc2)o1 ?
Ans: 28.4 (active)

Q: Can you share its B-score? I mean this compound: CC1=C(C(=O)Nc2ccccc2)S(=O)(=O)CCO1
Ans: inactive

Now take the following compound into account.
Q: Which B-score is reported for this compound? CCCCC(=O)N/N=C/c1c(O)n(CC)c(=S)n(CC)c1=O
Ans: 66 (active)
